# System: OCUM-1 (Gastric Carcinoma)
# protocolDetails: combination Emax (second highest fraction inhibited in the dose matrix, 72 h); higher = more inhibition; extreme values may be limits of the assay
Give measured combination Emax for each item. Keep answers brief.
Format: numeric value only, no unit, no commentary.

Reported combination Emax, molecule CC1(C)CCC(CN2CCN(c3ccc(C(=O)NS(=O)(=O)c4ccc(NCC5CCOCC5)c([N+](=O)[O-])c4)c(Oc4cnc5[nH]ccc5c4)c3)CC2)=C(c2ccc(Cl)cc2)C1 [Venetoclax] + CS(=O)(=O)CCNCc1ccc(-c2ccc3ncnc(Nc4ccc(OCc5cccc(F)c5)c(Cl)c4)c3c2)o1 [Lapatinib] (first compound max 1 µM, 7x7, partner max 10 µM) : ____ 0.178

Same for Cc1c2c(nn1C)CSCc1cc(n(C)n1)CSc1cc(c3ccccc3c1)OCCCc1c(C(=O)O)n(C)c3c-2c(Cl)ccc13 [AZD5991] + CC(=O)O[C@H]1C(=O)[C@@]2(C)[C@H]([C@H](OC(=O)c3ccccc3)[C@]3(O)C[C@H](OC(=O)[C@H](O)[C@@H](NC(=O)c4ccccc4)c4ccccc4)C(C)=C1C3(C)C)[C@]1(OC(C)=O)CO[C@@H]1C[C@@H]2O [Paclitaxel] (first compound max 1 µM, 7x7, partner max 3 µM) 0.321

Same for CC1(C)CCC(CN2CCN(c3ccc(C(=O)NS(=O)(=O)c4ccc(NCC5CCOCC5)c([N+](=O)[O-])c4)c(Oc4cnc5[nH]ccc5c4)c3)CC2)=C(c2ccc(Cl)cc2)C1 [Venetoclax] + C[C@@H]1COCCN1C2=NC(=NC(=C2)C3(CC3)[S@](=N)(=O)C)C4=C5C=CNC5=NC=C4 [AZD6738] (first compound max 1 µM, 7x7, partner max 10 µM) 0.672
